The measurements presented in this section are drawn from ChEMBL document CHEMBL4130624.

assay: Clearance in Swiss mouse at 2.5 mg/kg, iv administered as bolus dose by LC-MS/MS analysis; type: ADME, organism-based; details: in vivo
quantity: clearance (mL/min/kg)
Answer with a number only, understood to be in mL/min/kg.

# get_value(readout='clearance', item= C[C@]1(c2cc(NC(=O)c3ccc(C#N)cn3)ccc2F)N=C(N)CO[C@H]1C(F)(F)F )
69

###

assay: Tmax in Swiss mouse at 10 mg/kg, po administered as bolus dose by LC-MS/MS analysis; format: ADME, organism-based; settings: in vivo
quantity: Tmax (h)
Unit h implied. Number only.

Which value of Tmax has been reported for C[C@]1(c2cc(NC(=O)c3ccc(C#N)cn3)ccc2F)N=C(N)CO[C@H]1C(F)(F)F in the records?
1

###

test: Drug metabolism in mouse liver microsomes at 1 uM after 15 mins in presence of NADPH by HPLC-MS/MS analysis; format: ADME, microsome; conditions: read-out: Drug metabolism
Entries whose metabolised at 0.25 h, 1 µM is below 40% take Y; entries at or above 40% take N.

See these solved cases before continuing.
compound=COc1cnc(C(=O)Nc2ccc(F)c([C@@]3(C)N=C(N)CO[C@H]3C(F)(F)F)c2)cn1 assigned_category=Y
compound=C[C@]1(c2cc(NC(=O)c3ncc(C#N)cc3F)ccc2F)N=C(N)CO[C@@H]1F assigned_category=Y
compound=C[C@]1(c2cc(NC(=O)c3ncc(C#N)cc3Cl)ccc2F)N=C(N)CO[C@@H]1F assigned_category=Y

Take the compound C[C@]1(c2cc(NC(=O)c3ncc(C#N)cc3Cl)ccc2F)N=C(N)CO[C@H]1C(F)(F)F and say whether its metabolised at 0.25 h, 1 µM is less than 40%.
Y

One more compound: C[C@]1(c2cc(NC(=O)c3ccc(C#N)cn3)ccc2F)N=C(N)CO[C@H]1C(F)(F)F
Y

Now consider C[C@]1(c2cc(NC(=O)c3ccc(Cl)cn3)ccc2F)N=C(N)CO[C@H]1C(F)(F)F .
N

Now this one: COCCOc1cnc(C(=O)Nc2ccc(F)c([C@@]3(C)N=C(N)CO[C@H]3C(F)(F)F)c2)cn1
N

Could you do the same for C[C@]1(c2cc(-c3cncnc3)ccc2F)N=C(N)CO[C@H]1C(F)(F)F (racemic) , please?
N

###

assay: Ratio of drug level in kidney to plasma of Sprague-Dawley rat at 10 mg/kg, po; assay type: ADME, organism-based
quantity: Kp

If you can, please state the reported Kp value of C[C@]1(c2cc(NC(=O)c3ccc(C#N)cn3)ccc2F)N=C(N)CO[C@H]1C(F)(F)F .
19

###

assay: Volume of distribution at steady state in Sprague-Dawley rat at 2.5 mg/kg, iv administered as bolus dose by LC-MS/MS analysis; type: ADME, organism-based; conditions: in vivo, read-out: Vdss
quantity: Vd (L/kg)
The response must be a number in L/kg with no trailing unit.

# get_value(readout='Vd', item= C[C@]1(c2cc(NC(=O)c3ccc(C#N)cn3)ccc2F)N=C(N)CO[C@H]1C(F)(F)F )
11

###

test: Oral bioavailability in Swiss mouse at 10 mg/kg administered as bolus dose by LC-MS/MS analysis; format: ADME, organism-based; conditions: in vivo
quantity: bioavailability (%)
Numeric answer only, unit % assumed.

Could you share which bioavailability value was measured for C[C@]1(c2cc(NC(=O)c3ccc(C#N)cn3)ccc2F)N=C(N)CO[C@H]1C(F)(F)F ?
45
